STUDY_TARGET: mAChR M1 (Homo sapiens)
Sequence (P11229 1-460): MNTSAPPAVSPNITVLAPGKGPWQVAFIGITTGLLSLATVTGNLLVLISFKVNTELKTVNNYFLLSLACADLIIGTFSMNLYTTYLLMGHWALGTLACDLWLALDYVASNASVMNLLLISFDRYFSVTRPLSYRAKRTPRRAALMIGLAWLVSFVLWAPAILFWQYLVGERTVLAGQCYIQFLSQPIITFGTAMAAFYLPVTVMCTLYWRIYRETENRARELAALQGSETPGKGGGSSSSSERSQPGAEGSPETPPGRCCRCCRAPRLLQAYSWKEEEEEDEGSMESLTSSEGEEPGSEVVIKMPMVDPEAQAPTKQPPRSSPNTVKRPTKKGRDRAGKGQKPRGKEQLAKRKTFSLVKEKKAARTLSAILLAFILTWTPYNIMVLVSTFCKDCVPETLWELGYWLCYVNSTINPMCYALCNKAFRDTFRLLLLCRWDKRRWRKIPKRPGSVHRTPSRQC
PROTOCOL_TEXT: mAChR M1 cell-based functional assay (calcium mobilization, potentiation of EC20 acetylcholine response)
MEASUREMENT_CONTEXT: mAChR M1-expressing CHO-K1 cells; calcium flux; >10 μM estimated for low potency (no plateau) with >20% increase in ACh response
ENDPOINT: EC50 (µM)
# value in µM; strip the unit string

Item under review: Cn1cc2c(-c3cc(F)c(Cn4c(=O)cnc5ccccc54)c(F)c3)cccc2n1 . Reported EC50? 3.45
